# experimental_target: human LPAR1 (Homo sapiens)
# Construct: expressed in transfected cells
# protocol_details: Test Example 1: antagonism against response of LPA-induced increase in intracellular Ca2+ concentration in RH7777 cells stably expressing human LPAR1
# Assay type: cell-based
# test_settings: RH7777 cells stably expressing human LPAR1; Fluo-4 fluorescence, FDSS6000; read-out: IC50 value (concentration producing 50% antagonism against response of LPA-induced increase in intracellular Ca2+ concentration) (converted)
readout_kind: IC50 (nM)

| molecule | units | IC50 |
| --- | --- | --- |
| COc1cc(C(C)N(CCOCc2ccccc2)C(=O)NC2(C(=O)O)CC(F)(F)C2)c(Cl)c(OC)c1C1CC1 (stereo not shown) [Example 5-144] | nM | 1.11 |

[A] CCOc1cc(C(C)N(CCCCc2ccccc2)C(=O)NC2(C(=O)O)CC(F)(F)C2)cc(OCC)n1 (stereo not shown) [Example 5-86]
[B] CCOc1cc([C@@H](C)N(CCO[C@@H](C)c2ccccc2)C(=O)N[C@]2(C(=O)O)C[C@H](OC)C2)c(Cl)c(OCC)c1C(C)=O [Example 5-29]
## Task Lab note: record which item had the higher IC50, A or B . State the label of the item chosen.
## Result A
(A: 11 nM, B: 4.63 nM)

[I] CCOC(=O)C1(NC(=O)N(CCO[C@@H](C)c2ccccc2)C(C)c2cc(OCC)c(C(C)=O)c(OCC)c2Cl)CC(OCC)C1 (stereo partly shown) [Example 6-10]
[II] CCOc1cc(C(C)N(CCOC(C)c2ccccc2)C(=O)NC2(c3nn[nH]n3)CC(OC)C2)cc(OCC)c1C(C)=O (stereo not shown) [Example 10-16]
[III] CCO[C@H]1C[C@@](NC(=O)N(CCO[C@@H](C)c2ccccc2)C(C)c2cc(OC)c(C(C)=O)c(OC)c2)(C(=O)O)C1 (stereo partly shown) [Example 5-126]
## Task Arrange these molecules by their IC50, starting with the largest number. Return the labels ranked in the requested order, please.
## Result I, III, II

[1] CCOc1cc(C(C)N(CCO[C@@H](C)c2ccccc2)C(=O)NC2(C(=O)OC(C)(C)C)CC(OCC)C2)c(Cl)c(OCC)c1C(C)=O (stereo partly shown) [Example 6-15]
[2] CCOc1cc(C(C)N(CCO[C@@H](C)c2ccccc2)C(=O)NC2(C(=O)O)CC(OC)C2)c(Cl)c(OCC)c1C1CC1 (stereo partly shown) [Example 5-202]
[3] CCOc1cc(C(C)N(CCCCc2ccccc2)C(=O)NC2(C(=O)NS(=O)(=O)N(C)C)CCCC2)cc(OCC)c1C (stereo not shown) [Example 7-5]
## Task Arrange these molecules by their IC50, starting with the largest number. Return the labels ranked in the requested order, please.
## Result 1, 3, 2

[a] CCOc1cc(C(C)N(CCCCc2ccccc2)C(=O)NC2(C(=O)O)CC2)c(Cl)c(OCC)c1C(C)=O (stereo not shown) [Example 5-44]
[b] COc1cc([C@@H](C)N(CCO[C@@H](C)c2ccccc2)C(=O)NC2(C(=O)O)CC(OC)C2)c(Cl)c(OC)c1C(C)=O (stereo partly shown) [Example 5-124]
[c] CCOc1cc(C(C)N(CCCCc2ccccc2)C(=O)NC2(C(=O)O)CC(OCC)C2)cc(OCC)c1C1CC1 (stereo not shown) [Example 1-101]
## Task Arrange the 3 entries by IC50 so the values rise. Return the labels ranked in the requested order, please.
## Result c, a, b
(c: 1.44 nM, a: 3.38 nM, b: 10.8 nM)

----------
# experimental_target: human LPAR1 (Homo sapiens)
# Construct: expressed in transfected cells
# protocol_details: Test Example 1: antagonism against response of LPA-induced increase in intracellular Ca2+ concentration in RH7777 cells stably expressing human LPAR1
# Assay type: cell-based
# test_settings: RH7777 cells stably expressing human LPAR1; Fluo-4 fluorescence, FDSS6000; read-out: IC50 value (concentration producing 50% antagonism against response of LPA-induced increase in intracellular Ca2+ concentration) (converted)
readout_kind: IC50 (nM)

| compound | units | IC50 |
| --- | --- | --- |
| COc1cc(C(C)N(CCOCc2ccccc2)C(=O)NC2(C(=O)O)CC(OC)C2)cc(OC)c1C1CC1 (stereo not drawn) [Example 5-152] | nM | 2.36 |

[P] CCOc1cc(C(C)N(CCOCc2ccccc2)C(=O)NC2(C(=O)O)CC(OCC)C2)c(Cl)c(OCC)c1C1CC1 (stereo not drawn) [Example 5-221]
[Q] CCOc1cc([C@@H](C)N(CCCCc2ccccc2)C(=O)NC2(C(=O)NS(C)(=O)=O)CC(F)(F)C2)cc(OCC)c1C(C)=O [Example 7-1]
[R] CCOc1cc(C(C)N(CCCCc2ccccc2)C(=O)NC2(C(=O)NS(C)(=O)=O)CC(F)(F)C2)cc(OCC)c1C(C)O (stereo not drawn) [Example 7-2]
## Task Arrange these compounds by their IC50, starting with the largest number. Return the labels ranked in the requested order, please.
## Result R, Q, P
(R: 9.55 nM, Q: 2.75 nM, P: 0.695 nM)

[1] CCOc1cc(C(C)N(CCOC(C)c2ccccc2)C(=O)NC2(C(=O)O)CCC2)c(C)c(OCC)c1C (stereo not drawn) [Example 5-194]
[2] CCOc1cc([C@@H](C)N(CCCCc2ccccc2)C(=O)NC2(C(=O)O)CCC2)cc(OCC)c1C [Example 1-24]
## Task Lab note: record which item had the higher IC50, 1 or 2 . State the label of the item chosen.
## Result 2

[a] CCOc1cc(C(C)N(CCCCc2ccccc2)C(=O)NC2(C(=O)O)CCC(C(=O)O)CC2)cc(OCC)c1C (stereo not drawn) [Example 1-120]
[b] CCOc1cc(C(C)N(CCCCc2ccccc2)C(=O)NC2(C(=O)O)CC(F)(F)C2)cc(OCC)c1C(O)CC (stereo not drawn) [Example 1-33]
[c] CCOc1cc([C@@H](C)N(CCO[C@@H](C)c2ccccc2)C(=O)N[C@]2(C(=O)O)C[C@@H](OC)C2)c(C)c(OCC)c1C [Example 5-79]
## Task Arrange these compounds by their IC50, starting with the largest number. Return the labels ranked in the requested order, please.
## Result a, b, c
(a: 1670 nM, b: 7.13 nM, c: 1.21 nM)

----------
# experimental_target: human LPAR1 (Homo sapiens, UniProt Q92633)
# Construct: expressed in transfected cells
# Sequence (Q92633 whole entry): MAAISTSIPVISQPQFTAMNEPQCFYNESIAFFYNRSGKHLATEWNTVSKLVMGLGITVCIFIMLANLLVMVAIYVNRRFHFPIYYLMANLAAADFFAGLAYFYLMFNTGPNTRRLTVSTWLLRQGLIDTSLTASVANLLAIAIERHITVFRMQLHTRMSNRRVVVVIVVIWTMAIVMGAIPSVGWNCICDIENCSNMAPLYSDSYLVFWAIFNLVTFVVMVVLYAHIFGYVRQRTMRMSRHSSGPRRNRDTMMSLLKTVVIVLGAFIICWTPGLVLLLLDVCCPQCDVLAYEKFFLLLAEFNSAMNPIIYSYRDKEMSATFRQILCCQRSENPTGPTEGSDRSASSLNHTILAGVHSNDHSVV
# protocol_details: Test Example 1: antagonism against response of LPA-induced increase in intracellular Ca2+ concentration in RH7777 cells stably expressing human LPAR1
# Format: cell-based
# test_settings: RH7777 cells stably expressing human LPAR1; Fluo-4 fluorescence, FDSS6000; read-out: IC50 value (concentration producing 50% antagonism against response of LPA-induced increase in intracellular Ca2+ concentration) (converted)
readout_kind: IC50 (nM)

| compound | IC50 / nM |
| --- | --- |
| CC(=O)c1ccc(C(C)N(CCCCc2ccccc2)C(=O)NC2(C(=O)O)CC(F)(F)C2)cc1 (centres unmarked) [Example 5-4] | 128 |
| CCOc1cc(C(C)N(CCOC(C)c2ccccc2)C(=O)NC2(C(=O)O)CC2)c(Cl)c(OCC)c1C(C)=O (centres unmarked) [Example 5-187] | 4.16 |
| CCOc1cc(C(C)N(CCCc2cccc(F)c2)C(=O)NC2(C(=O)O)CC(F)(F)C2)cc(OCC)c1C (centres unmarked) [Example 4-7] | 25.2 |
| CCOc1cc([C@@H](C)N(CCCCc2ccccc2)C(=O)NC2CCC[C@@H]2C(=O)O)cc(OCC)c1C(C)=O (some centres unmarked) [Example 1-134] | 14.5 |
| COc1cc(C(CO)N(CCCCc2ccccc2)C(=O)NC2(C(=O)O)CCCC2)cc(OC)c1C (centres unmarked) [Example 3-7] | 74.5 |

[a] CCOc1cc([C@@H](C)N(CCCCc2ccccc2)C(=O)N[C@H]2COC[C@H]2C(=O)O)cc(OCC)c1C(C)=O [Example 1-162]
[b] CCOc1cc(C(C)N(CCOCc2ccccc2)C(=O)NC2(C(=O)O)CC2)c(C)c(OCC)c1C(C)=O (centres unmarked) [Example 5-186]
[c] CCOc1c(C)ccc([C@@H](C)N(CCOC(C)c2ccccc2)C(=O)NC2(C(=O)O)CC(F)(F)C2)c1C (some centres unmarked) [Example 4-168]
[d] CCOc1c(C(C)(C)O)ccc([C@@H](C)N(CCCCc2ccccc2)C(=O)NC2(C(=O)O)CC(OCC)C2)c1C (some centres unmarked) [Example 1-104]
## Task Arrange these compounds by their IC50, starting with the largest number. Return the labels ranked in the requested order, please.
## Result d, c, a, b

[A] CCOc1cc([C@@H](C)N(CCO[C@@H](C)c2ccccc2)C(=O)N[C@]2(C(=O)O)C[C@@H](OCC)C2)cc(OCC)c1C1CC1 [Example 4-138]
[B] CCOc1cc([C@@H](C)N(CCO[C@@H](C)c2ccccc2)C(=O)N[C@]2(C(=O)O)C[C@@H](OCC)C2)c(C)c(OCC)c1C(C)=O [Example 5-118]
[C] CCOc1cc([C@@H](C)N(CCO[C@@H](C)c2ccccc2)C(=O)N[C@]2(C(=O)O)C[C@H](OC)C2)cc(OCC)c1C(C)=O [Example 4-122]
## Task Arrange these compounds by their IC50, starting with the largest number. Return the labels ranked in the requested order, please.
## Result C, A, B
(C: 4.53 nM, A: 2.91 nM, B: 1.86 nM)

[I] CCOc1c(C(C)=O)ccc([C@@H](C)N(CCO[C@H](C)c2ccccc2)C(=O)NC2(C(=O)O)CC(OCC)C2)c1C (some centres unmarked) [Example 4-157]
[II] CCOc1cc(C(C)N(CCOCc2ccccc2)C(=O)NC2(C(=O)O)CCC2)c(Cl)c(OCC)c1C(C)=O (centres unmarked) [Example 5-189]
## Task Lab note: record which item had the higher IC50, I or II . State the label of the item chosen.
## Result I
